Reported IC50, Neprilysin (Homo sapiens).
measure: IC50 (nM)

Worked cases, IC50 given:
INSERT INTO results (smiles_string, tested_system, measure, measure_unit, result_value) VALUES
  ('CN1CCC[C@H](NC(=O)[C@@H](S)Cc2ccccc2)C(=O)N1CC(=O)O', 'Neprilysin (Homo sapiens)', 'IC50', 'nM', 484),
  ('CCCN1C(=O)CC[C@H](NC(=O)[C@@H](S)Cc2ccccc2)C(=O)N1CC(=O)O', 'Neprilysin (Homo sapiens)', 'IC50', 'nM', 1920);

P: O=C(N[C@H]1CCCN2CCC[C@@H](C(=O)O)N2C1=O)[C@@H](S)Cc1ccccc1
Q: CCCN1CCC[C@H](NC(=O)[C@@H](S)Cc2ccccc2)C(=O)N1CC(=O)O
R: O=C(O)CN1NCCC[C@H](NC(=O)[C@@H](S)Cc2ccccc2)C1=O
[in] # ascending order, key=IC50 Provide the labels, sequenced as the question asks.
[out] P, R, Q
(P: 3 nM, R: 486 nM, Q: 1490 nM)
